Sourced from paper PMC12136037

biological target: ~100 representative kinases (Homo sapiens); construct: Recombinant protein kinase domains with a concentration of 2 μM; test: DSF 100 kinase selectivity screen; format: binding; conditions: Protein STK3; DSF; average of three replicates;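 note: compound tested at 20 µM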
property: dTm
Just the number plus its unit, please.

Input line: Annotate the molecule `O=C(Nc1cccc(-c2c[nH]c3ncnc(N4CCOCC4)c23)c1)C1(C(=O)Nc2ccc(F)c(Br)c2)CC1` with its measured dTm.
Output line: 7.71 K

Input line: Give reported dTm value for `Cc1ccc(C(=O)Nc2ccc(CN3CCN(C)CC3)c(C(F)(F)F)c2)cc1C#Cc1c[nH]c2ncnc(N3CCOCC3)c12`
Output line: 10.52 K

====

target: ~100 representative kinases (Homo sapiens, UniProt O14936); construct: Recombinant protein kinase domains with a concentration of 2 μM; test: DSF 100 kinase selectivity screen; assay type: binding; conditions: Protein CASK; average of three replicates;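 note: compound tested at 20 µM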
Sequence (O14936 whole entry, the tested form may be a part): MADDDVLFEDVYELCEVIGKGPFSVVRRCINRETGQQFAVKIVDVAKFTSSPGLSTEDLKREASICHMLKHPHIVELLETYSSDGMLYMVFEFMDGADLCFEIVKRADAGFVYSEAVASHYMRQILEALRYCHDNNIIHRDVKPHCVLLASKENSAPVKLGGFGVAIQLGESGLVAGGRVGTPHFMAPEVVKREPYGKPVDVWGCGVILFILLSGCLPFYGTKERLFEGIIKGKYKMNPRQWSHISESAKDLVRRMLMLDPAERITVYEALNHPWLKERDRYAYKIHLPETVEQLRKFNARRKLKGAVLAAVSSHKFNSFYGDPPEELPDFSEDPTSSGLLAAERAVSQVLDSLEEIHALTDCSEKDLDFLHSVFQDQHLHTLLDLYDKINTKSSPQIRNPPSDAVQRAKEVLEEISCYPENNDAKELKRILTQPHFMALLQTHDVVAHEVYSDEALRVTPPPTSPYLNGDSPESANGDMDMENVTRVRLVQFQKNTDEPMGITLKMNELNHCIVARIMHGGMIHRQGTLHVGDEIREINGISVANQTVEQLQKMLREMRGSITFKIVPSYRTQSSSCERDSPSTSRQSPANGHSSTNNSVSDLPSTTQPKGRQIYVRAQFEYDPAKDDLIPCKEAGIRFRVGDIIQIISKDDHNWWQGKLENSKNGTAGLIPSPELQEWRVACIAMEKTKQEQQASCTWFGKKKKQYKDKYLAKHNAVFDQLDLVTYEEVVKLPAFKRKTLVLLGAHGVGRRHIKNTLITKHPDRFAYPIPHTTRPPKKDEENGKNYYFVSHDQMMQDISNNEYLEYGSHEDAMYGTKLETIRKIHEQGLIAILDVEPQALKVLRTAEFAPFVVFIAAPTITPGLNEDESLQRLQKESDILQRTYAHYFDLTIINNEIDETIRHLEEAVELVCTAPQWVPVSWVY
Parameter threshold = 0.06 K. Response is true (1) when dTm meets or exceeds it, else false (0).

{"compound": "O=C(Nc1cccc(-c2c[nH]c3ncnc(N4CCOCC4)c23)c1)C1(C(=O)Nc2ccc(F)c(F)c2)CC1", "tested-system": "~100 representative kinases (Homo sapiens, UniProt O14936)", "label-class": "true (1)"}

Input line: Reported dTm at or above 0.06 K? `O=C(Nc1cccc(-c2c[nH]c3ncnc(N4CCOCC4)c23)c1)c1cccn(-c2ccc(F)cc2)c1=O`
Output line: false (0)

Input line: Identify whether the reported dTm of the following compound is 0.06 K or greater: Cc1ccc(C(=O)Nc2ccc(CN3CCN(C)CC3)c(C(F)(F)F)c2)cc1C#Cc1cnc2[nH]ncc2c1 [GZD-824, reference compound]
Output line: false (0)

Input line: hey, is dTm for this one >= 0.06 K? `CC(=O)N1CCN(c2nc(Cl)nc3[nH]cc(-c4cccc(NC(=O)Nc5cc(C(C)(C)C)nn5-c5ccc(C)cc5)c4)c23)CC1`
Output line: false (0)

====

biological target: ~100 representative kinases (Homo sapiens, UniProt P51955); construct: Recombinant protein kinase domains with a concentration of 2 μM; test: DSF 100 kinase selectivity screen; assay type: binding; settings: protein NEK2; average of three replicates;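 note: compound tested at 20 µM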
Sequence (P51955 whole entry, the tested form may be a part): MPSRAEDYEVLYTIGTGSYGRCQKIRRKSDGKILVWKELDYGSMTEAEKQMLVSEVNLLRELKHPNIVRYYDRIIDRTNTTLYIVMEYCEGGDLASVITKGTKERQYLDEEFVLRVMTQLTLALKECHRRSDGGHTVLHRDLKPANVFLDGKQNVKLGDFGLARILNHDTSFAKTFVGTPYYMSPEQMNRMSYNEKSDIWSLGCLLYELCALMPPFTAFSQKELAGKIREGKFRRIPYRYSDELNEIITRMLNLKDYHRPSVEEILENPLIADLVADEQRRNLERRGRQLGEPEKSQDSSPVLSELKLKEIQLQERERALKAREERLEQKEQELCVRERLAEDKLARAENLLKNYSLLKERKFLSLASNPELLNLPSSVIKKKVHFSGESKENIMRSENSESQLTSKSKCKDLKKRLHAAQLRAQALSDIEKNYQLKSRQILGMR
property: dTm (K)
Just the number in K, nothing appended.

Below, 3 compounds whose answers are already recorded.
{"record-smiles": "COc1cc(C(=O)N2CCOCC2)c(F)cc1Nc1nc(N(C)C)c2c(Cl)c[nH]c2n1", "dTm, K": -0.68}
{"record-smiles": "CCNc1nc(Nc2cc(F)c(C(=O)N3CCOCC3)cc2OC)ncc1C(F)(F)F", "dTm, K": 0.39}
{"record-smiles": "CCc1ccc(NC(=O)C2(C(=O)Nc3cccc(-c4c[nH]c5ncnc(N6CCOCC6)c45)c3)CC2)cc1", "dTm, K": 2.27}

Let us examine a further case.
Input line: Please report dTm for the following compound: `O=C(Nc1cccc(-c2c[nH]c3ncnc(N4CCOCC4)c23)c1)C1(C(=O)Nc2ccc(F)c(Br)c2F)CC1`
Output line: -4.02

====

Entries and their dTm
molecular target: ~100 representative kinases (Homo sapiens, UniProt O43293); construct: Recombinant protein kinase domains with a concentration of 2 μM; test: DSF 100 kinase selectivity screen; format: binding; settings: Protein DAPK3; average of three replicates;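 note: compound tested at 20 µM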
Sequence (O43293 whole entry, the tested form may be a part): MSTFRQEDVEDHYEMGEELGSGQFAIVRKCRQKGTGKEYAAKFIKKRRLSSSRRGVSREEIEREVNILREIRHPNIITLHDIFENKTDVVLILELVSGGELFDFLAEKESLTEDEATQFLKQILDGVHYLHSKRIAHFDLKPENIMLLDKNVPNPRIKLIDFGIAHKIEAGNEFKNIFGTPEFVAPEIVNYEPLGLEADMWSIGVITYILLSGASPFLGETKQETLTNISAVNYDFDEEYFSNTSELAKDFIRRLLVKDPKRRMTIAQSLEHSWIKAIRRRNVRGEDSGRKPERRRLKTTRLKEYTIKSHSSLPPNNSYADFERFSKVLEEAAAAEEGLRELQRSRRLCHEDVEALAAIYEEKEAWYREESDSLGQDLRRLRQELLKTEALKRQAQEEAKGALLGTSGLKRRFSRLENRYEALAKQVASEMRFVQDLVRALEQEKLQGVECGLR
Kindly answer with a numeric value in K, unit omitted.

Answered cases to consult:
{"record-smiles": "O=C(Nc1cccc(-c2c[nH]c3ncnc(N4CCOCC4)c23)c1)C1(C(=O)Nc2ccc(F)cc2F)CC1", "tested-system": "~100 representative kinases (Homo sapiens, UniProt O43293)", "measurement-units": "K", "dTm": 3.66}
{"record-smiles": "O=C(Nc1cccc(-c2c[nH]c3ncnc(N4CCOCC4)c23)c1)c1cccn(-c2ccc(F)cc2)c1=O", "tested-system": "~100 representative kinases (Homo sapiens, UniProt O43293)", "measurement-units": "K", "dTm": 5.01}
{"record-smiles": "COc1ccc(NC(=O)C2(C(=O)Nc3cccc(-c4c[nH]c5ncnc(N6CCOCC6)c45)c3)CC2)cc1", "tested-system": "~100 representative kinases (Homo sapiens, UniProt O43293)", "measurement-units": "K", "dTm": 1.15}

Kindly consider the entry below.
Input line: Recall and state the measured dTm for `O=C(Nc1cc(F)cc(Br)c1)C1(C(=O)Nc2cccc(-c3c[nH]c4ncnc(N5CCOCC5)c34)c2)CC1` .
Output line: 4.42

====

molecular target: ~100 representative kinases (Homo sapiens, UniProt P52564); construct: Recombinant protein kinase domains with a concentration of 2 μM; assay: DSF 100 kinase selectivity screen; format: binding; conditions: protein MAP2K6; average of three replicates;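 note: compound tested at 20 µM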
Sequence (P52564 whole entry, the tested form may be a part): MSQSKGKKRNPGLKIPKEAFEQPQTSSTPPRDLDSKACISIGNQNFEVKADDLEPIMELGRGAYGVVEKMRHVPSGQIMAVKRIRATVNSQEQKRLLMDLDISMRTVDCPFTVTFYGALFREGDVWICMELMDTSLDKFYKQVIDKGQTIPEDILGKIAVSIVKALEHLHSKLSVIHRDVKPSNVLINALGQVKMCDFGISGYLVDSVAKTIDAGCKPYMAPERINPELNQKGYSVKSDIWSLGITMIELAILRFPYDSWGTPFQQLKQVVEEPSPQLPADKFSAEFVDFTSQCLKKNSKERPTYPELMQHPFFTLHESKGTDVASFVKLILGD
Measured dTm by item
The answer should read as a number with its unit following.

{"molecule": "O=C(Nc1cccc(-c2c[nH]c3ncnc(N4CCOCC4)c23)c1)C1(C(=O)Nc2ccc(F)c(Br)c2F)CC1 [Compound 26]", "tested-system": "~100 representative kinases (Homo sapiens, UniProt P52564)", "dTm": "2.03 K"}

Input line: Quick one: give measured dTm for COc1cc(S(C)(=O)=O)ccc1Nc1nc(N(C)C)c2c(Cl)c[nH]c2n1 [Compound 37]
Output line: 5.52 K

Input line: Assign dTm to the following record: CC(=O)N1CCN(c2nc(Cl)nc3[nH]cc(-c4cccc(NC(=O)Nc5cc(C(C)(C)C)nn5-c5ccc(C)cc5)c4)c23)CC1 [Compound 31]
Output line: 0.27 K

Input line: Identify measured dTm associated with COc1cc2c(Oc3ccc(NC(=O)C4(C(=O)Nc5ccc(F)cc5)CC4)cc3F)ccnc2cc1OCCCN1CCOCC1 [Foretinib, reference compound]
Output line: 2.25 K

Input line: Please look at this molecule and report its dTm: CCNc1nc(Nc2cc(F)c(C(=O)N3CCOCC3)cc2OC)ncc1C(F)(F)F [GNE-7915]
Output line: 0.65 K

Input line: Provide dTm value for the following molecule: Cc1ccc(C(=O)Nc2ccc(CN3CCN(C)CC3)c(C(F)(F)F)c2)cc1C#Cc1cnc2[nH]ncc2c1 [GZD-824, reference compound]
Output line: 0.96 K

Input line: Please list dTm recorded for the molecule CN[C@@H]1C[C@H]2O[C@@](C)([C@@H]1OC)n1c3ccccc3c3c4c(c5c6ccccc6n2c5c31)C(=O)NC4 [Staurosporine]
Output line: 12.80 K

====

molecular target: ~100 representative kinases (Homo sapiens, UniProt P21675); construct: Recombinant protein kinase domains with a concentration of 2 μM; test: DSF 100 kinase selectivity screen; format: binding; conditions: Protein TAF1; DSF; average of three replicates;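 note: compound tested at 20 µM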
Sequence (P21675 whole entry, the tested form may be a part): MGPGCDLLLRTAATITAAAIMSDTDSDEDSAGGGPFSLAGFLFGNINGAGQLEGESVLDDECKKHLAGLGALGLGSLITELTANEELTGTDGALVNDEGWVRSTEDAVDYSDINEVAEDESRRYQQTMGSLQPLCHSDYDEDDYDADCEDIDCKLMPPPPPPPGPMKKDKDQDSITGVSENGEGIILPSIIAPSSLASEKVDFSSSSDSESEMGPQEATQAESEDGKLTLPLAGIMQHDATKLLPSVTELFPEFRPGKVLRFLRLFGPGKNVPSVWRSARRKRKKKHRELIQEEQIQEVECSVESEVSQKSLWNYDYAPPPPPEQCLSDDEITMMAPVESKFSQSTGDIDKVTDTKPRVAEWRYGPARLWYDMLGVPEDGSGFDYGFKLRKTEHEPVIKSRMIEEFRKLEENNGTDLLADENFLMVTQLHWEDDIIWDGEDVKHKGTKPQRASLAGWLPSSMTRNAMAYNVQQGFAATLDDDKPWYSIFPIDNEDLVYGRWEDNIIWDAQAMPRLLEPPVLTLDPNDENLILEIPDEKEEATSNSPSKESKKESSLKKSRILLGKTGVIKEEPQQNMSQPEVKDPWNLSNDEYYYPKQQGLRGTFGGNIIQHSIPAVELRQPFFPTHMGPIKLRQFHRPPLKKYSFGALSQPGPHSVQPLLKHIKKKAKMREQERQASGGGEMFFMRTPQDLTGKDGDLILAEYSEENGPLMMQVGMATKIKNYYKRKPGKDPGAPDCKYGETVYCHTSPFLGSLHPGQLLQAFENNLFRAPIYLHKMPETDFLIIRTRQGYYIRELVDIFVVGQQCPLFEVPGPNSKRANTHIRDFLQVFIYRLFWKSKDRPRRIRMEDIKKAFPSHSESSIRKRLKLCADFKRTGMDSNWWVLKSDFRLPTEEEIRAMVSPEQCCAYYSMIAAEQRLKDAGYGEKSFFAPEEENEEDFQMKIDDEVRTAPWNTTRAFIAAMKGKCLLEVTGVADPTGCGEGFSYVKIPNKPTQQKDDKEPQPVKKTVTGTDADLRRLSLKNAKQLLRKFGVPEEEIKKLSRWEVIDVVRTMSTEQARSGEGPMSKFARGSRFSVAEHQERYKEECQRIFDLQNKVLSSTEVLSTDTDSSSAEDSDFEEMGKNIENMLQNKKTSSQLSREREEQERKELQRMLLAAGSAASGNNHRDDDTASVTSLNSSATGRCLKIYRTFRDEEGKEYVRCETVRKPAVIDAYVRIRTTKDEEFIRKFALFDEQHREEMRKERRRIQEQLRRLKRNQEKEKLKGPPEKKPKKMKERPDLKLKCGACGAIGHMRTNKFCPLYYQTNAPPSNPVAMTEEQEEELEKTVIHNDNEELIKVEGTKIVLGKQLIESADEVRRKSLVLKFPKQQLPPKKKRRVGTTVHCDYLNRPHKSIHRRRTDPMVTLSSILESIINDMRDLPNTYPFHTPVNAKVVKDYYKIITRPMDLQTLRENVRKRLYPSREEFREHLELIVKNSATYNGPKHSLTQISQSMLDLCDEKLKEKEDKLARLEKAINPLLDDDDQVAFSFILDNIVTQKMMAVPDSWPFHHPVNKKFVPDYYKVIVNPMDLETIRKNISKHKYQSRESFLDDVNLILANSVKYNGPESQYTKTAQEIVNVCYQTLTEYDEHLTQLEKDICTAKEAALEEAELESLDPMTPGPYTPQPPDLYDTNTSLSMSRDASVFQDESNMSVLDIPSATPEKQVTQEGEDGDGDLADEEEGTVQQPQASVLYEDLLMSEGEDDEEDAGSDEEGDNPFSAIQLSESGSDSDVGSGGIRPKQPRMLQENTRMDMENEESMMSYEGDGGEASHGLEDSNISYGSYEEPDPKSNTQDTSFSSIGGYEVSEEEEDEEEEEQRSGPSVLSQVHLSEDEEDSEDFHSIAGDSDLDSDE
// reported dTm per item
Write down the numeric answer in K and omit the unit.

These recorded examples may help you get a feel for the data.
{"compound": "Cc1ccc(-n2nc(C(C)(C)C)cc2NC(=O)Nc2cccc(-c3c[nH]c4nc(Cl)nc(N5CCOCC5)c34)c2)cc1 [Compound 30]", "tested-system": "~100 representative kinases (Homo sapiens, UniProt P21675)", "property": "dTm", "measurement-units": "K", "data-value": -4.89}
{"compound": "O=C(Nc1cccc(-c2c[nH]c3ncnc(N4CCOCC4)c23)c1)C1(C(=O)Nc2ccc(F)c(Br)c2F)CC1 [Compound 26]", "tested-system": "~100 representative kinases (Homo sapiens, UniProt P21675)", "property": "dTm", "measurement-units": "K", "data-value": -1.20}
{"compound": "CCc1ccc(NC(=O)C2(C(=O)Nc3cccc(-c4c[nH]c5ncnc(N6CCOCC6)c45)c3)CC2)cc1 [Compound 15]", "tested-system": "~100 representative kinases (Homo sapiens, UniProt P21675)", "property": "dTm", "measurement-units": "K", "data-value": 1.78}
{"compound": "O=C(Nc1cccc(-c2c[nH]c3ncnc(N4CCOCC4)c23)c1)C1(C(=O)Nc2cc(Br)c(F)cc2F)CC1 [Compound 25]", "tested-system": "~100 representative kinases (Homo sapiens, UniProt P21675)", "property": "dTm", "measurement-units": "K", "data-value": 1.63}
{"compound": "O=C(Nc1ccc(F)cc1)C1(C(=O)Nc2cccc(-c3c[nH]c4ncnc(N5CCOCC5)c34)c2)CC1 [Compound 2]", "tested-system": "~100 representative kinases (Homo sapiens, UniProt P21675)", "property": "dTm", "measurement-units": "K", "data-value": 0.23}
{"compound": "COc1cc(S(C)(=O)=O)ccc1Nc1nc(N(C)C)c2c(Cl)c[nH]c2n1 [Compound 37]", "tested-system": "~100 representative kinases (Homo sapiens, UniProt P21675)", "property": "dTm", "measurement-units": "K", "data-value": 1.43}
{"compound": "Cc1cc(F)ccc1NC(=O)C1(C(=O)Nc2cccc(-c3c[nH]c4ncnc(N5CCOCC5)c34)c2)CC1 [Compound 24]", "tested-system": "~100 representative kinases (Homo sapiens, UniProt P21675)", "property": "dTm", "measurement-units": "K", "data-value": 0.30}
{"compound": "Cc1ccc(C(=O)Nc2ccc(CN3CCN(C)CC3)c(C(F)(F)F)c2)cc1C#Cc1cnc2cccnn12 [Ponatinib, reference compound]", "tested-system": "~100 representative kinases (Homo sapiens, UniProt P21675)", "property": "dTm", "measurement-units": "K", "data-value": -0.60}

Input line: For the compound O=C(Nc1cccc(-c2c[nH]c3ncnc(N4CCOCC4)c23)c1)C1(C(=O)Nc2ccc(F)cc2F)CC1 [Compound 23] , report dTm.
Output line: 0.59

Input line: Supply measured dTm of Cn1cc(-c2c[nH]c3ncnc(N4CCOCC4)c23)cc1C#N [PFE-360] in your reply.
Output line: -0.43

Input line: Query dTm for O=C(Nc1cc(F)cc(Br)c1)C1(C(=O)Nc2cccc(-c3c[nH]c4ncnc(N5CCOCC5)c34)c2)CC1 [Compound 27]
Output line: -2.32

Input line: Hello, please tell me recorded dTm for this one: CC(C)(C)c1cccc(NC(=O)C2(C(=O)Nc3cccc(-c4c[nH]c5ncnc(N6CCOCC6)c45)c3)CC2)c1 [Compound 22]
Output line: 1.24

Input line: Return dTm for the following compound: O=C(Nc1cccc(-c2c[nH]c3ncnc(N4CCOCC4)c23)c1)C1(C(=O)Nc2ccc(F)c(Br)c2)CC1 [Compound 19]
Output line: 0.00

Input line: Please indicate dTm recorded for CCNc1nc(Nc2cc(F)c(C(=O)N3CCOCC3)cc2OC)ncc1C(F)(F)F [GNE-7915]
Output line: -0.58

Input line: State its dTm for this compound: CC(C)(C)c1cc(NC(=O)Nc2cccc(-c3c[nH]c4ncnc(N5CCOCC5)c34)c2)n(-c2ccc3ncccc3c2)n1 [Compound 28]
Output line: 1.17
